biological target: human TLR7 (Homo sapiens, UniProt Q9NYK1); construct: host or cells: HEK-Blue TLR7 cells (engineered human embryonic kidney cells); experiment: HEK-Blue TLR7 reporter assay (human TLR7 agonist activity, SEAP reporter); format: cell-based; settings: Table B, formula IIb compounds; HEK-Blue TLR7 cells, 18 h treatment, SEAP read-out
Sequence (Q9NYK1 27-1049): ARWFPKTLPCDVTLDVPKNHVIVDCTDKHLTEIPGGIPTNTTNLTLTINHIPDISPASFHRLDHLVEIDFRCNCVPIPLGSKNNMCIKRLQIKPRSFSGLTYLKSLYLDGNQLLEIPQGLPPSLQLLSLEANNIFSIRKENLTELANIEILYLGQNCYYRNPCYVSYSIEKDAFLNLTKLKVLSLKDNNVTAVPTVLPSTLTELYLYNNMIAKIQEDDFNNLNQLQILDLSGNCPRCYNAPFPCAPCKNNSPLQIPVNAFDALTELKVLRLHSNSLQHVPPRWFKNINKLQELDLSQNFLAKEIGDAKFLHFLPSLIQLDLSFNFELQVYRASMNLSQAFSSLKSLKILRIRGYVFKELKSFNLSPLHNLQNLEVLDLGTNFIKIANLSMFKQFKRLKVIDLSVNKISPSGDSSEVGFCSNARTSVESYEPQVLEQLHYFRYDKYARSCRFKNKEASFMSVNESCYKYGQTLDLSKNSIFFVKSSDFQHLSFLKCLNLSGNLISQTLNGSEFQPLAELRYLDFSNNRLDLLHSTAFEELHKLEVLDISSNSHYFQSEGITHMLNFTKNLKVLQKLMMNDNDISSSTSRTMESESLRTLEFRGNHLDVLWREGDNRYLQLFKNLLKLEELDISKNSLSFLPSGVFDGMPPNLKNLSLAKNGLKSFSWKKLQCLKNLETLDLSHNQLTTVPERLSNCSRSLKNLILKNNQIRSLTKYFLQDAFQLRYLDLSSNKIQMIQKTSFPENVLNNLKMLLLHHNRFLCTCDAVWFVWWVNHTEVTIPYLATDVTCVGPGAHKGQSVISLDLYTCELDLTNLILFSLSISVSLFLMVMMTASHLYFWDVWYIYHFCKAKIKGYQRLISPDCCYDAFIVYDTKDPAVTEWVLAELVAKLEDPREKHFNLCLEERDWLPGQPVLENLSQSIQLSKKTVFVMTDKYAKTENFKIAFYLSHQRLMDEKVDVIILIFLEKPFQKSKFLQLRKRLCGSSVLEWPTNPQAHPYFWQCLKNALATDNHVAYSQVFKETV
pEC50: −log10 of the molar value.
TEST READOUT: pEC50

CCCCNc1nc(N)nc2cn(Cc3ccc(Oc4ccc(CNCCO)cc4)nc3)nc12 5.68

1 = CCCCNc1nc(N)nc2cn(Cc3ccc(Oc4ccc(CNCCO)cc4)cc3OC)nc12
2 = CCCCNc1nc(N)nc2cn(Cc3ccc(Oc4ccc(CO)cc4)nc3)nc12
Qu. Hey, which is lower on measured pEC50, 1 or 2 ? Pick one; state its label.
Ans. 1
(1: 5.80, 2: 6.09)

###

biological target: human TLR7 (Homo sapiens, UniProt Q9NYK1); construct: host or cells: HEK-Blue TLR7 cells (engineered human embryonic kidney cells); assay: HEK-Blue TLR7 reporter assay (human TLR7 agonist activity, SEAP reporter); assay type: cell-based; settings: Table A, formula IIa compounds; HEK-Blue TLR7 cells, 18 h treatment, SEAP read-out
pEC50: −log10 of the molar value.
TEST READOUT: pEC50

MOLECULE	MEASURED TARGET	TEST READOUT	VAL
CCCCNCc1ccc(Cn2cc3nc(N)nc(NCCCC)c3n2)c(OC)c1	human TLR7 (Homo sapiens, UniProt Q9NYK1)	pEC50	6.09

A = CCCCNc1nc(N)nc2cn(Cc3ccc(CN4CCOCC4)cc3OC)nc12
B = CCCCNc1nc(N)nc2cn(Cc3ccc(CN(C)CCCO)cc3OC)nc12
C = CCCCNc1nc(N)nc2cn(Cc3ccc(CNC4CCOCC4)cc3OC)nc12
D = CCCCNc1nc(N)nc2cn(Cc3ccc(CNCCCN)cc3OC)nc12
Qu. Order the records so the highest pEC50 appears first and the lowest last. A ranking is expressed here by listing the labels in the requested order.
Ans. B, C, A, D

1 = CCCCNc1nc(N)nc2cn(Cc3ccc(CNCc4ccc(N)cc4)cc3OC)nc12
2 = CCCCNc1nc(N)nc2cn(Cc3ccc(CN4CCN(C)CC4)cc3OC)nc12
Qu. Hey, which is lower on measured pEC50, 1 or 2 ? Pick one; state its label.
Ans. 2
(2: 6.28, 1: 6.57)

1 = CCCCNc1nc(N)nc2cn(Cc3ccc(CNCC(C)(C)O)cc3OC)nc12
2 = CCCCNc1nc(N)nc2cn(Cc3ccc(CNCC4COC4)cc3OC)nc12
Qu. Hey, which is lower on measured pEC50, 1 or 2 ? Pick one; state its label.
Ans. 2

1 = CCCCNc1nc(N)nc2cn(Cc3ccc(Cn4ccnc4)cc3OC)nc12
2 = CCCCNc1nc(N)nc2cn(Cc3ccc(CN4CCNCC4)cc3OC)nc12
3 = CCCCNc1nc(N)nc2cn(Cc3ccc(CNc4ccc(CCO)cc4)cc3OC)nc12
4 = CCCCNc1nc(N)nc2cn(Cc3ccc(CNC4COC4)cc3OC)nc12
Qu. Which order do these items take when sorted by rising pEC50? List them. A ranking is expressed here by listing the labels in the requested order.
Ans. 3, 2, 4, 1

Origin of the recorded values: patent US11400094B2
